# experimentalTarget: KDR (human)
# test: radiometric filter-binding kinase assay, Kinase HotSpot
# conditionLabel: compound 0.5 µM; ATP 10 µM
Could you please report measured residual activity for the items listed next?
# value in %; strip the unit string

Inquiry: Specify reported residual activity for the compound shown: Ic1cccc(CSc2nnc(-c3ccncc3)o2)c1
Reply text: 78.1

Inquiry: Specify reported residual activity for the compound shown: CCCCc1c(-c2ccc(OC)cc2)[nH]c2nccnc12
Reply text: 88.8

Inquiry: Specify reported residual activity for the compound shown: O=C1C(Cl)=C(N2C(=O)CCC2=O)C(=O)c2ccccc21
Reply text: 88.3

Inquiry: Specify reported residual activity for the compound shown: NC(=O)c1cccc(-c2cc(Nc3ccc(OC(F)(F)F)cc3)ncn2)c1
Reply text: 99.8

Inquiry: Specify reported residual activity for the compound shown: COc1ccc(C(=O)Nc2sc3c(c2C(N)=O)CCCC3)cc1OC
Reply text: 78.2

Inquiry: Specify reported residual activity for the compound shown: Cc1cncc2cccc(S(=O)(=O)N3CCCN(C(=O)CN)C[C@H]3C)c12
Reply text: 99

Data provenance: the kinase profiling compilation of Christmann-Franck et al. (2016)
